Source of measurements: PubChem BioAssay (NCI)

tested on: PC-3 prostate; test: NCI-60 one-dose screen, 48 h; conditions: 10 µM
About 83,000 compounds went through this panel and 20% of them were active in at least one assay; those are over-represented in the sample as a whole. Calls of active or inactive are those of the source. How the source made its calls: active means growth percent below 10; inactive means the rest.
Hello, when you answer, please use one of the following outcomes: yes (active), no (inactive)

{"Compound": "COc1ccc(-c2cc(-c3ccc(N(C)C)cc3)c(C#N)c(N3CCCC3)n2)cc1", "Answer label": "no"}
{"Compound": "COc1cc(CNCCCCCCN2C(=O)c3cccc4cccc(c34)C2=O)ccc1O", "Answer label": "no"}
{"Compound": "Cc1ccc(C)c(C(O)(c2cc(C)ccc2C)C2(O)CCCCC2)c1", "Answer label": "no"}
{"Compound": "O=C1OCC2=C1C(c1ccc(Cl)c(Cl)c1)c1cc3c(cc1N2CCO)OCCO3 (stereo unspecified)", "Answer label": "no"}
{"Compound": "CCCCN(CCCC)CCCCCCCCC(O)c1cc2ccccc2c2ccccc12 (stereo unspecified)", "Answer label": "no"}
{"Compound": "CCOC1(OCC)OC(c2ccccc2)=C(C#N)C(/C=C\\c2ccccc2)C1(OCC)OCC (stereo unspecified)", "Answer label": "no"}
{"Compound": "COc1cc(C(=O)N2CCN(c3ccccc3OC)CC2)c(N)cc1OCCCN1CCN(c2ccccc2OC)CC1", "Answer label": "no"}
{"Compound": "COc1cc(CNc2ccccc2C(=O)N2CCN(C(=O)c3cc(-c4cc(OC)c(OC)c(OC)c4)n4nc(-c5ccccc5)cc4n3)CC2)cc(OC)c1OC", "Answer label": "no"}

How did this test come out for O=C(Nc1ccc(Cl)c(Cl)c1)Nc1c(Oc2ccc(Cl)c(Cl)c2)ccc(Cl)c1S(=O)(=O)O ? no

* * *

test system: OVCAR-3 ovarian; experiment: NCI-60 one-dose screen, 48 h (100 = growth as untreated, 0 = no growth, -100 = all killed); conditions: 10 µM
The panel holds about 83,000 compounds, 20% with a hit somewhere; the sample as a whole holds those more often.
For each entry below, report its growth value.
One number for each entry, in %.

In the examples that follow, each entry is paired with its recorded growth.
{"Compound": "N#Cc1cccc(OCc2nc(N)nc(N)c2-c2ccc(Cl)c(Cl)c2)c1", "growth [%]": 38.5}
{"Compound": "COc1ccc2c(c1)O/C(=C\\c1ccc([N+](=O)[O-])s1)C2=O", "growth [%]": -30.5}
{"Compound": "O=C1/C(=C/c2ccc(Cl)cc2)SC(=Nc2ccc(Cl)cc2)N1Cc1nc2ccccc2[nH]1", "growth [%]": 81.6}
{"Compound": "COc1ccc([N+](=O)[O-])c(C(=O)O)c1", "growth [%]": 102}
{"Compound": "Cc1ccc(Nc2cc(C)nc(NCCCNc3ccnc4cc(Cl)ccc34)n2)cc1", "growth [%]": -79.9}

Field: growth. Fill in for each record below.
1. Cc1ccc2oc3nc(C)c(C(=O)NCc4ccccc4)cc3c(=O)c2c1
2. COC(=O)c1ccc(=O)oc1
3. COc1cc2cc3c(nc2cc1OC)CCN3Cc1ccc(NC(=O)Nc2cc(C(F)(F)F)cc(C(F)(F)F)c2)cc1
4. COc1cc(-c2cc(-c3cc4c([nH]c5ccccc54)c(-c4cc(OC)c(OC)c(OC)c4)n3)cc(-c3ccccc3)n2)cc(OC)c1OC
5. CCN(CC)CCC(CNc1c(C)cnc2cc(Cl)ccc12)c1ccc(Cl)c(Cl)c1 (stereo unspecified)
6. Clc1ccc(Nc2ccnc(NCCCNc3ccnc4cc(Cl)ccc34)n2)cc1
7. CC1(O)CCC2CC3OC3(C)CCC3OC3(C)CCC1C2(C)C (stereo unspecified)
8. CCOC(=O)c1ccoc1

99.7
116
51.6
72.3
77
-19
69.4
101
